Where do these numbers come from? They come from patent US20230113037A1.

Target: AHR (Homo sapiens)
Construct: U87 MG glioblastoma cells (ATCC #HTB-14) endogenously expressing AHR; endogenous in cells; host or cells: U87 MG glioblastoma cells (ATCC #HTB-14)
Sequence (P35869 11-848): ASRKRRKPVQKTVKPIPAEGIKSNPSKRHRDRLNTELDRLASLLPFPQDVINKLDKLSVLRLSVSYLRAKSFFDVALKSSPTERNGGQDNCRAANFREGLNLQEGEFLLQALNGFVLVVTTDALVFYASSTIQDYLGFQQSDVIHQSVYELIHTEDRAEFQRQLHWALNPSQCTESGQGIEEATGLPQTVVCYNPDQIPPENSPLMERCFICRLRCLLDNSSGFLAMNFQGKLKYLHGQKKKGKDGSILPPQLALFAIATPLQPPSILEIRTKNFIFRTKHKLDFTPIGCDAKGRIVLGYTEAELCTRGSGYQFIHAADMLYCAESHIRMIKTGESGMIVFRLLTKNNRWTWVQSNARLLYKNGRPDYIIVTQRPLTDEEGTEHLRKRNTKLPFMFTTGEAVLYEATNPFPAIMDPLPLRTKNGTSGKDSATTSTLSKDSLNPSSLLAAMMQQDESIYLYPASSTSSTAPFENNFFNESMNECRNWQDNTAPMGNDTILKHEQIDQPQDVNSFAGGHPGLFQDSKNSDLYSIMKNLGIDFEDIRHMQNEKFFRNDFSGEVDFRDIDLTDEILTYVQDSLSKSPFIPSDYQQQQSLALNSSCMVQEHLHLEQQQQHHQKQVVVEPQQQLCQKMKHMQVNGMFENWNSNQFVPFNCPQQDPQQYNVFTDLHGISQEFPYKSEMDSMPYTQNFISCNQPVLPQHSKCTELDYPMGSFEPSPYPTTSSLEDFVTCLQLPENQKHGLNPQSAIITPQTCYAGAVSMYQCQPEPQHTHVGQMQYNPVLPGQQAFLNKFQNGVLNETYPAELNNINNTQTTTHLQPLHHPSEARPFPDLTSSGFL
Assay: In vitro assay 1: antagonism in human cell line (AHR transactivation, firefly luciferase reporter, kynurenic acid prestimulated)
Type: cell-based
Settings: AHR Antagonism Human IC50 [M]
readout-type: IC50 (M)
Report the value in M with no unit label.

Known IC50 results, listed for orientation:
Lookup: Test system AHR (Homo sapiens); read-out IC50; what value for N#Cc1cccc(-c2nc3c4ccccc4nc(NC4CCCCCNC4=O)n3n2)c1 (stereo not shown) [Example 443] ?
Found: 1.02e-08

Lookup: IC50 of COc1ccc(-c2nc3c4c(C5CCOCC5)cccc4nc(N[C@@H]4CCCCNC4=O)n3n2)cc1 [Example 397] on AHR (Homo sapiens)?
Found: 1.83e-08

Lookup: Form field - read-out: IC50; system: AHR (Homo sapiens); submitted item: CC[C@H](Nc1nc2c(Br)cccc2c2nc(-c3cnn(C)c3)nn12)C(N)=O [Example 694]
Found: 1.55e-07

Lookup: Checklist item: IC50 tested on AHR (Homo sapiens), entry COc1ccc(-c2nc3c4ccccc4nc(N[C@H](C)C(=O)N4CCN(C)CC4)n3n2)cc1 [Example 777] , value?
Found: 1.8e-09

Lookup: Form field: IC50 recorded for O=C1NCCCC[C@H]1Nc1nc2ccccc2c2nc(-c3ccsc3)nn12 [Example 340] with AHR (Homo sapiens) (enter value)
Found: 7.33e-10

Lookup: Give IC50 (AHR (Homo sapiens)) of the following molecule: COc1ccc(-c2nc3c4cc(OC)ccc4nc(N[C@@H]4CNCCNC4=O)n3n2)cc1 [Example 279]
Found: 3.08e-07

Lookup: What is its IC50 for AHR (Homo sapiens)? Entry: Cc1ccccc1-c1nc2c3ccccc3nc(NC3CCCNC3=O)n2n1 (single isomer, unassigned) [Example 48]
Found: 3.2e-08

Lookup: Field: IC50 (AHR (Homo sapiens)). Entry: COc1ccc(-c2nc3c4cccc(C(=O)OC(C)C)c4nc(N[C@@H]4CCCCNC4=O)n3n2)cc1 [Example 653]
Found: 2.58e-07

New cases:
Lookup: Notebook: pull reported IC50 for AHR (Homo sapiens), entry O=C1NCCCC[C@H]1Nc1nc2ccccc2c2nc(-c3cnn(C(F)F)c3)nn12 [Example 534]
Found: 2.03e-09

Lookup: GET /values?readout=IC50&system=AHR (Homo sapiens)&item= O=C1NCCCC[C@H]1Nc1nc2ccccc2c2nc(-c3ccc(Br)cc3Cl)nn12 [Example 200]
Found: 2.87e-09

Lookup: So what IC50 did COc1cccc(-c2nc3c4ccccc4nc(N[C@H](CO)C(N)=O)n3n2)c1 [Example 79] get with AHR (Homo sapiens)?
Found: 4.9e-08

Lookup: Find the measured IC50: item O=C1NCCNC[C@H]1Nc1nc2ccccc2c2nc(-c3cnn(CC4CC4)c3)nn12 [Example 416] , target or system AHR (Homo sapiens).
Found: 2.1e-06

Lookup: Report IC50 for COc1ccc(-c2nc3c4cccc(Br)c4nc(N[C@H](C)C(=O)NCCN4CCOCC4)n3n2)cc1 [Example 781] tested on AHR (Homo sapiens).
Found: 1.17e-09

Lookup: Observed IC50 on AHR (Homo sapiens) for Cc1ccccc1-c1nc2c3ccccc3nc(NC3CCNC3=O)n2n1 (single isomer, unassigned) [Example 50] , please.
Found: 1.06e-08

Lookup: Given the entry CCn1cc(-c2nc3c4cccc(C(F)(F)F)c4nc(N[C@@H]4CCCCNC4=O)n3n2)c(C)n1 [Example 674] , what IC50 was observed with AHR (Homo sapiens)?
Found: 3.44e-10

Lookup: What value of IC50 on AHR (Homo sapiens) does COc1ccc(-c2nc3c4ccccc4nc(N[C@H]4CCNC4=O)n3n2)cc1 [Example 40] have?
Found: 2.08e-08
